src = patent US20250092044A1

biological target: CYP3A4 (Homo sapiens (Human), UniProt P08684); experiment: Time Dependent Inhibition (TDI) of CYP; type: in vitro ADME; conditions: Kobs; human liver microsomes, 10 μM, 30 min pre-incubation with NADPH
Sequence (P08684 whole entry): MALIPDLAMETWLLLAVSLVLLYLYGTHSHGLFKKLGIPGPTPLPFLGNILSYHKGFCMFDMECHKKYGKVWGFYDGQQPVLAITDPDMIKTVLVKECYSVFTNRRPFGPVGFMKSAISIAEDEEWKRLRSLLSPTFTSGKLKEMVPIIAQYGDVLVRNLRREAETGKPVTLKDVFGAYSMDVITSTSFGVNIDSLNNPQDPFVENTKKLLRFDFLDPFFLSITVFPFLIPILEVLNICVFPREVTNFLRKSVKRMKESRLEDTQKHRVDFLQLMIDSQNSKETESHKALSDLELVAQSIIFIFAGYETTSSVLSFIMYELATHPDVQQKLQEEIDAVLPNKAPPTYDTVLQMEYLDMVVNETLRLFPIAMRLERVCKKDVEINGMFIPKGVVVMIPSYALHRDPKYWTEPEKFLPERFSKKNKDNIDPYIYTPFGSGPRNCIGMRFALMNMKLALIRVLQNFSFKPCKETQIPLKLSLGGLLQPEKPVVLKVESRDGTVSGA
Measurement kind: TDI 3A4

# Compound, Result
data = [
    ("[2H]C([2H])([2H])N(Cc1ccc(-c2[nH]c3ncc4c(c3c2-c2ccc3c(c2)CC(C)(C)O3)n([C@@H]2CC[C@@H](NC(=O)OC)C2)c(=O)n4C([2H])([2H])[2H])cc1)C([2H])([2H])[2H] [Example 25]", "⋄ (≤0.005)"),
    ("[2H]C([2H])([2H])N(Cc1ccc(-c2[nH]c3ncc4c(c3c2-c2ccc(OCCOC)cc2)n([C@@H]2CC[C@@H](NC(=O)OC)C2)c(=O)n4C([2H])([2H])[2H])cc1)C([2H])([2H])[2H] [Example 27]", "⋄ (≤0.005)"),
]

* * *

assay: In Vivo Pharmacokinetics (cynomolgus monkey); set-up: species or system Cynomolgus monkeys; conditions: both sexes, plasma, PO 3.0 mg/kg, read-out: CYNO PO AUC
The entries below are paired with their reported AUC.
Measurement kind: AUC

# Compound, Result
records = [
    ("[2H]C([2H])([2H])N(Cc1ccc(-c2[nH]c3ncc4c(c3c2-c2ccc(OCCOC)cc2)n([C@@H]2CC[C@@H](NC(=O)OC)C2)c(=O)n4C([2H])([2H])[2H])cc1)C([2H])([2H])[2H]", "> 1.5 µM·h"),
    ("COc1nn(C)cc1-c1[nH]c2ncc3c(c2c1-c1ccc2c(cnn2C)c1)n(C1CCOCC1)c(=O)n3C [Comparative Example A, reference compound]", "≤ 0.5 µM·h"),
    ("[2H]C([2H])([2H])n1ncc2cc(-c3c(-c4cn(C)nc4OC)[nH]c4ncc5c(c34)n(C3CCOCC3)c(=O)n5C)ccc21 [Comparative Example B, reference compound]", "≤ 0.5 µM·h"),
    ("[2H]C([2H])([2H])n1c(=O)n([C@@H]2CC[C@@H](NC(=O)OC)C2)c2c3c(-c4ccc5c(cnn5C(C)C)c4)c(-c4ccc(CN(C)C)cc4)[nH]c3ncc21", "0.5 to 1.5 µM·h"),
]

* * *

target: CYP3A4 (Homo sapiens (Human)); assay: Time Dependent Inhibition (TDI) of CYP; type: in vitro ADME; details: Kobs; human liver microsomes, 10 μM, 30 min pre-incubation with NADPH

# Chemical string, TDI 3A4
rows = [
    ("[2H]C([2H])([2H])n1c(=O)n([C@@H]2CC[C@@H](NC(=O)OC)C2)c2c3c(-c4ccc5c(cnn5C(C)C)c4)c(-c4ccc(CN(C)C)cc4)[nH]c3ncc21", "⋄ (≤0.005)"),
    ("[2H]C([2H])([2H])n1c(=O)n([C@@H]2CC[C@@H](NC(=O)OC)C2)c2c3c(-c4ccc5c(c4)COC5(C)C)c(-c4ccc(C(=O)N(C)C)cc4)[nH]c3ncc21", "⋄⋄ (>0.005 to ≤0.02)"),
    ("COC(=O)N[C@@H]1CC[C@@H](n2c(=O)n(C)c3cnc4[nH]c(-c5ccc(CN(C)C)cc5)c(-c5ccc(F)cc5)c4c32)C1", "⋄ (≤0.005)"),
    ("[2H]C([2H])([2H])N(Cc1ccc(-c2[nH]c3ncc4c(c3c2-c2ccc3c(c2)COC3(C)C)n([C@@H]2CC[C@@H](NC(=O)OC)C2)c(=O)n4C([2H])([2H])[2H])cc1)C([2H])([2H])[2H]", "⋄⋄ (>0.005 to ≤0.02)"),
]
